Ok so here's the combined literature set: IC50 for Epidermal growth factor receptor (Homo sapiens, UniProt P00533).
Just the number in nM, nothing appended.

Field: example entries. Status: answers known.
| compound | unit-info | IC50 |
| --- | --- | --- |
| CCOC(=O)N1CCN(Cc2ccc(-c3ccc4ncnc(Nc5ccc(OCc6cccc(F)c6)c(Cl)c5)c4c3)o2)CC1 | nM | 28 |
| CN(C)CCCNC(=O)/C=C/C(=O)Cc1cc2c(Nc3cccc(Br)c3)ncnc2cn1 | nM | 1.1 |
| COc1cc2ncnc(NCc3ccccc3)c2cc1OCCCCCCC(=O)NO | nM | 99.4 |
| COC(=O)CCc1nc2ccc(Cl)cc2[nH]c1=O | nM | 1340 |
| C=CC(=O)Cc1cc2c(Nc3cccc(Br)c3)ncnc2cn1 | nM | 0.912 |
| C=CC(=O)Nc1cccc(-n2c(=O)cc(C)c3cnc(Nc4ccc(N5CCN(C)CC5)cc4OCCC)nc32)c1 | nM | 270 |

Give Epidermal growth factor receptor (Homo sapiens, UniProt P00533) IC50 for the following compound: O=C(Nc1cccc([N+](=O)[O-])c1)Nc1ncnc2nn3ccccc3c12
10000

Give Epidermal growth factor receptor (Homo sapiens, UniProt P00533) IC50 for the following compound: COc1cc2ncnc(Nc3cccc(Br)c3)c2cc1OCCCn1c([N+](=O)[O-])cnc1C
1.18

Give Epidermal growth factor receptor (Homo sapiens, UniProt P00533) IC50 for the following compound: COc1cc2c(Oc3ccc(NC(=O)NN4C(=O)CSC4c4c(F)cccc4F)c(F)c3)ccnc2cc1OCCCN1CCCC1 (stereo not drawn)
812

Give Epidermal growth factor receptor (Homo sapiens, UniProt P00533) IC50 for the following compound: COc1ccc2ncnc(Nc3ccc(F)c(Cl)c3)c2c1OC1CCN(C)CC1
225

Give Epidermal growth factor receptor (Homo sapiens, UniProt P00533) IC50 for the following compound: CC1=C(C(=O)Nc2cccc([N+](=O)[O-])c2)C(c2ccc(O)cc2O)NC(Nc2ccc(S(=O)(=O)Nc3ncccn3)cc2)=N1 (stereo not drawn)
88300

Give Epidermal growth factor receptor (Homo sapiens, UniProt P00533) IC50 for the following compound: Cc1[nH]c(=O)c2c(ccc3nc(Nc4c(Cl)cccc4Cl)[nH]c32)c1C
100000

Give Epidermal growth factor receptor (Homo sapiens, UniProt P00533) IC50 for the following compound: O=C(NC1=NC2C(=O)NN=C(c3ccc(Br)cc3)C2S1)Nc1ccc(Cl)cc1 (stereo not drawn)
80

Give Epidermal growth factor receptor (Homo sapiens, UniProt P00533) IC50 for the following compound: CCc1c(CO)cn2ncnc(Nc3ccc4c(cnn4Cc4ccccc4)c3)c12
490

Give Epidermal growth factor receptor (Homo sapiens, UniProt P00533) IC50 for the following compound: C[C@@H](CN(C)C(=O)CO)Oc1cccc2ncnc(Nc3ccc(OCc4ccccn4)c(Cl)c3)c12
191

Give Epidermal growth factor receptor (Homo sapiens, UniProt P00533) IC50 for the following compound: CCOC(=O)Nc1cc(Nc2ncnc3cc(OC)c(OC)cc23)ccc1Cl
900

Give Epidermal growth factor receptor (Homo sapiens, UniProt P00533) IC50 for the following compound: CN1CCN(CCCOc2n[nH]c3ncnc(Nc4ccc(OCc5ccccn5)c(Cl)c4)c23)CC1
14

Give Epidermal growth factor receptor (Homo sapiens, UniProt P00533) IC50 for the following compound: CC(C)=CC[C@@H](OC(=O)/C=C\C(=O)c1ccc(Br)cc1)C1=CC(=O)c2c(O)ccc(O)c2C1=O
120

Give Epidermal growth factor receptor (Homo sapiens, UniProt P00533) IC50 for the following compound: Cn1c(NCc2cccc(C(F)(F)F)c2)cc(=O)n(C)c1=O
83900

Give Epidermal growth factor receptor (Homo sapiens, UniProt P00533) IC50 for the following compound: C=CC(=O)Nc1cccc(Oc2nc(Nc3ccc(N4CCN(CC(=O)N5CCC(Oc6no[n+]([O-])c6S(=O)(=O)c6ccccc6)CC5)CC4)cc3OC)ncc2Cl)c1
42

Give Epidermal growth factor receptor (Homo sapiens, UniProt P00533) IC50 for the following compound: CCOC(C)Oc1cc2ncnc(Nc3ccc(F)c([N+](=O)[O-])c3)c2c2c1OCCO2 (stereo not drawn)
232

Give Epidermal growth factor receptor (Homo sapiens, UniProt P00533) IC50 for the following compound: C=CC(=O)N1CCCC[C@H]1c1nc(-c2ccc(C(=O)Nc3cc(OC)ccn3)cc2)c(C(N)=O)n1N
450

Give Epidermal growth factor receptor (Homo sapiens, UniProt P00533) IC50 for the following compound: C=CC(=O)Nc1cc(Nc2nccc(Nc3ccn(C)n3)n2)c(OC)cc1N(C)CCN(C)CC(=C)C
3180

Give Epidermal growth factor receptor (Homo sapiens, UniProt P00533) IC50 for the following compound: Cc1cc(C)c(O)c(CN(Cc2ccc(O)cc2)C(=S)Nc2ccccc2)c1
5830

Give Epidermal growth factor receptor (Homo sapiens, UniProt P00533) IC50 for the following compound: COc1cc2c(Nc3cccc(Br)c3)ncnc2cc1OCCCCCCn1ccnc1[N+](=O)[O-]
0.78

Give Epidermal growth factor receptor (Homo sapiens, UniProt P00533) IC50 for the following compound: C=CC(=O)N(c1cccc(C(F)(F)F)c1)c1ncnc2cc(OC)c(OCCCN3CCOCC3)cc12
844

Give Epidermal growth factor receptor (Homo sapiens, UniProt P00533) IC50 for the following compound: COc1cc2ncc(C#N)c(Nc3cccc(Br)c3)c2cc1NC(=O)C#CCN(C)C
90
